TARGET SYSTEM: T1, orthogonal hCD122 receptor (hoRb), hCD122 with H133D and Y134F (human, UniProt P14784 27-550); further: reference of the scale not given here
T1 sequence: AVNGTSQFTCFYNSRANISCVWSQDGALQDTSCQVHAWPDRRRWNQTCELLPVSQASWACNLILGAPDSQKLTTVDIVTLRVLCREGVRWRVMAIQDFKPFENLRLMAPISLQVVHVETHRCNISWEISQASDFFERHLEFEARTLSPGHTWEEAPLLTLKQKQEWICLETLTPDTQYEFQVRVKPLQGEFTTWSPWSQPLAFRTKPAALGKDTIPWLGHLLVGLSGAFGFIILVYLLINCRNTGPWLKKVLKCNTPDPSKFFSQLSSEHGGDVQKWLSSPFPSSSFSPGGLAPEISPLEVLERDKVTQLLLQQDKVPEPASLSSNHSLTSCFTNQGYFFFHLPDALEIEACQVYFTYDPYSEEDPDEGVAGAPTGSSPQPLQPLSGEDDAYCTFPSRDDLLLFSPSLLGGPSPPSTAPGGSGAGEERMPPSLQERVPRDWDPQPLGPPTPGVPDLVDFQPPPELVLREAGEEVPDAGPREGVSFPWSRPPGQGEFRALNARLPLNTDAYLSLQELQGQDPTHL
ASSAY PROCEDURE: cell-based or functional assay
Please provide measured Relative Proliferation Fold Change NKL 1:2 for the entries that follow.
The reply should be a number in fold, with the unit left off.

Quick one: Relative Proliferation Fold Change NKL 1:2 of Q126M, SQVLKA (ligand) APTSSSTKKTQLQLSQLLVLLKAILNGINNYKNPKLTRMLTFKFYMPKKATELKHLQCLEEELKPLEEVLNLAQSKNFHLRPRDLISNINVIVLELKGSETTFMCEYADETATIVEFLNRWITFCMSIISTLT ? 2

Subsequent entry: Δ88N, SQVLKA (ligand) APTSSSTKKTQLQLSQLLVLLKAILNGINNYKNPKLTRMLTFKFYMPKKATELKHLQCLEEELKPLEEVLNLAQSKNFHLRPRDLISINVIVLELKGSETTFMCEYADETATIVEFLNRWITFCQSIISTLT 0.42

Subsequent entry: ΔP2, SQVLKA (ligand) ATSSSTKKTQLQLSQLLVLLKAILNGINNYKNPKLTRMLTFKFYMPKKATELKHLQCLEEELKPLEEVLNLAQSKNFHLRPRDLISNINVIVLELKGSETTFMCEYADETATIVEFLNRWITFCQSIISTLT 4.41

Subsequent entry: SQVLVA (ligand) APTSSSTKKTQLQLSQLLVLLVAILNGINNYKNPKLTRMLTFKFYMPKKATELKHLQCLEEELKPLEEVLNLAQSKNFHLRPRDLISNINVIVLELKGSETTFMCEYADETATIVEFLNRWITFCQSIISTLT 0.83
